biological target: GDP-bound KRAS wild-type protein (Homo sapiens, UniProt P01116); assay: Binding to KRAS by surface plasmon resonance (SPR), Single Cycle Kinetics; conditions: SPR, Single Cycle Kinetics, GDP-bound KRAS wild-type protein; read-out: KRAS KD
Sequence (P01116 whole entry): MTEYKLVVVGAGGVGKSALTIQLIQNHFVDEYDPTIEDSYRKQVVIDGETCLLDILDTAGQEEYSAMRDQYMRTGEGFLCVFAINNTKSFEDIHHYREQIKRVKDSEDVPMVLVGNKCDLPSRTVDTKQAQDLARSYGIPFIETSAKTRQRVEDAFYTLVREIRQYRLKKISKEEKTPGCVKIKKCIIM
*1 amine or outer side, *2 acyl side, *3 side chain or, on linkers, in order; H or OH if unused. Where a SMILES comes first, the peptide text is derived from it. Bridges are numbered along the chain shown (N, C = ends). [ ]: non-standard residue; d: D form. The star is where a group is joined. hPhe(3-Cl-4-CF3) = N[C@@H](CCc1ccc(C(F)(F)F)c(Cl)c1)C(=O)O; X2 = CCCN([C@@H](COC1CCC1)C(=O)[*:2])[*:1]; NMeGly(cPent) = CN[C@H](C(=O)O)C1CCCC1; NMeD = CN[C@@H](CC(=O)O)C(=O)O; NMeL = CN[C@@H](CC(C)C)C(=O)O; Morpholide = C1CN(*)CCO1; NMeA = CN[C@@H](C)C(=O)O; Aze = O=C(O)[C@@H]1CCN1; Ac4c = NC1(C(=O)O)CCC1; Sar = CNCC(=O)O
Could you please report measured pKd for the items listed next?
One number for each entry, as −log10 of the molar value.

Illustrative cases are given below, each with its answer.
>  <compound>
CCO[C@@H]1C[C@H]2C(=O)NC3(CC(C)(C)C3)C(=O)N(C)[C@@H](C3CCCC3)C(=O)N(C)[C@H](C(=O)N(C)C)CC(=O)N(C)[C@@H](CC(C)C)C(=O)N[C@@H]([C@@H](C)CC)C(=O)N(C)CC(=O)N(C)[C@H]3C/C=C\CCN(C3=O)[C@@H](Cc3ccc(C(F)(F)F)cc3)C(=O)N(C)CC(=O)N[C@@H](CCc3ccc(C(F)(F)F)c(F)c3)C(=O)N2C1

>  <pKd>
9.92

$$$$
>  <compound>
CCO[C@@H]1C[C@H]2C(=O)NC3(CC(C)(C)C3)C(=O)N(C)[C@@H](C(CC)CC)C(=O)N(C)[C@H](C(=O)N(C)C)CC(=O)N(C)[C@H]3CCCC/C=C/c4ccc(cc4)C[C@@H](C(=O)N(C)CC(=O)N[C@@H](CCc4cc(F)c(C(F)(F)F)c(F)c4)C(=O)N2C1)N1CC/C=C\C[C@@H](C1=O)N(C)C(=O)CN(C)C(=O)[C@H]([C@@H](C)CC)NC3=O

>  <pKd>
10.28

$$$$
>  <compound>
CC[C@H](C)[C@@H]1NC(=O)[C@H](CC2CC2)N(C)C(=O)C[C@@H](C(=O)N(C)C)N(C)C(=O)[C@H](C2CCCC2)N(C)C(=O)C2(CC(C)(C)C2)NC(=O)[C@@H]2CC(F)(F)CN2C(=O)[C@H](CCc2cc(F)c(C(F)(F)F)c(F)c2)NC(=O)CN(C)C(=O)[C@H](Cc2ccc(C(F)(F)F)cc2)N2CC/C=C\C[C@@H](C2=O)N(C)C(=O)CN(C)C1=O

>  <pKd>
10.02

$$$$
>  <compound>
CCO[C@@H]1C[C@H]2C(=O)NC3(CC(C)(C)C3)C(=O)N(C)[C@@H](C3CCCC3)C(=O)N(C)[C@H](C(=O)N3CCCCC3)CC(=O)N(C)[C@H]3CCCCc4ccc(cc4)C[C@@H](C(=O)N(C)CC(=O)N[C@@H](CCc4ccc(C(F)(F)F)c(OC)c4)C(=O)N2C1)N1CC/C=C\C[C@@H](C1=O)N(C)C(=O)CN(C)C(=O)[C@H]([C@@H](C)CC)NC3=O

>  <pKd>
10.01

$$$$
>  <compound>
CCC[C@H]1C(=O)N[C@@H]([C@@H](C)CC)C(=O)N(C)CC(=O)N(C)[C@H]2C/C=C\CCN(C2=O)[C@@H](Cc2ccc(C)cc2)C(=O)N(C)CC(=O)N[C@@H](CCc2cc(F)c(C(F)(F)F)c(F)c2)C(=O)N2CC3(CC3)C[C@H]2C(=O)NC2(CC(C)(C)C2)C(=O)N(C)[C@@H](CC(F)(F)F)C(=O)N(C)[C@H](C(=O)N(C)C)CC(=O)N1C

>  <pKd>
9.14

$$$$

Count: 6. Required value per item: pKd.
1. CCC[C@@H]1C[C@H]2C(=O)NC3(CCCC3)C(=O)N(C)[C@@H](C3CCCC3)C(=O)N(C)[C@H](C(=O)N(C)CC)CC(=O)N(C)[C@@H](C)C(=O)N[C@@H]([C@@H](C)CC)C(=O)N(C)CC(=O)N(C)[C@H]3C/C=C\CCN(C3=O)[C@@H](Cc3ccc(C(F)(F)F)cc3)C(=O)N(C)CC(=O)N[C@@H](CCc3cc(F)c(C(F)(F)F)c(F)c3)C(=O)N2C1
2. CCCN1C(=O)[C@@H]2CCN2C(=O)[C@H](C)N(C)C(=O)[C@H]([C@@H](C)CC)NC(=O)[C@H](CC(C)C)N(C)C(=O)C[C@@H](C(=O)N2CCOCC2)N(C)C(=O)[C@H](C2CCCC2)N(C)C(=O)C2(CCC2)NC(=O)[C@@H]2CCCN2C(=O)[C@H](CCc2ccc(C(F)(F)F)c(Cl)c2)NC(=O)CN(C)C(=O)[C@@H]1COC1CCC1 [PP1818] ([NMeL]I[NMeA][Aze][X2][Sar][hPhe(3-Cl-4-CF3)]P[Ac4c][NMeGly(cPent)][NMeD]-Morpholide; lactam N-11)
3. CCO[C@@H]1C[C@H]2C(=O)NC3(CCC3)C(=O)N(C)[C@@H](C3CCCC3)C(=O)N(C)[C@H](C(=O)N(C)C)CC(=O)N(C)[C@@H](CC)C(=O)N[C@@H]([C@@H](C)CC)C(=O)N(C)CC(=O)N(C)[C@H]3CC(C)=CCN(C3=O)[C@@H](Cc3ccc(C(F)(F)F)cc3)C(=O)N(C)CC(=O)N[C@@H](CCc3cc(F)c(C(F)(F)F)c(F)c3)C(=O)N2C1
4. CC[C@H](C)[C@@H]1NC(=O)[C@@H]2CCCCc3ccc(cc3)C[C@@H](C(=O)N(C)CC(=O)N[C@@H](CCc3ccc(C(F)(F)F)c(OC)c3)C(=O)N3C[C@H](OC4CCC4)C[C@H]3C(=O)NC3(CC(C)(C)C3)C(=O)N(C)[C@@H](C3CCCC3)C(=O)N(C)[C@H](C(=O)N(C)CC)CC(=O)N2C)N2CC/C=C\C[C@@H](C2=O)N(C)C(=O)CN(C)C1=O
5. CC[C@H](C)[C@@H]1NC(=O)[C@H](C2CC2)N(C)C(=O)C[C@@H](C(=O)N(C)C)N(C)C(=O)[C@H](C2CCCC2)N(C)C(=O)C2(CCCC2)N(C)C(=O)[C@@H]2C[C@@H](C)CN2C(=O)[C@H](CCc2cc(F)c(C(F)(F)F)c(F)c2)NC(=O)CN(C)C(=O)[C@H](Cc2ccc(C)cc2)N2CC/C=C\C[C@@H](C2=O)N(C)C(=O)CN(C)C1=O
6. CC[C@H](C)[C@@H]1NC(=O)[C@H](COC)N(C)C(=O)C[C@@H](C(=O)N2CCOCC2)N(C)C(=O)[C@H](C2CCCC2)N(C)C(=O)C2(CCC2)NC(=O)[C@@H]2CC(F)(F)CN2C(=O)[C@H](CCc2cc(F)c(C(F)(F)F)c(F)c2)NC(=O)CN(C)C(=O)[C@H](Cc2ccc(C(F)(F)F)cc2)N2CCCCC[C@@H](C2=O)N(C)C(=O)CNC1=O

A:
1. 9.31
2. 9.05
3. 9.37
4. 10.30
5. 9.92
6. 9.18
